What self-cleavage was measured for each of the following?
B1: Hairpin Ribozyme (parent)
chain: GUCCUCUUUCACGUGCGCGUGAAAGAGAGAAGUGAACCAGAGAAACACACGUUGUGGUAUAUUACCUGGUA

Variants of: B1
Experiment: self-cleavage, relative activity (ratio to wild type); higher = more cleavage; co-transcriptional
One number for each entry.

Look up self-cleavage for the entries below, preserving their order.
1. A31C G32A
2. C18U G69C
3. U2C G21A
4. U9C A36C

Marked response:
[0.173, 0.334, 0.0868, 0.491]

Look up self-cleavage for the entries below, preserving their order.
1. U8G U20A
2. A41U U52A
3. A23C A59C

Marked response:
1. 0.353
2. 1.23
3. 0.193

Look up self-cleavage for the entries below, preserving their order.
1. G51C G68A
2. A35G A36G

Marked response:
[0.254, 0.749]

Look up self-cleavage for the entries below, preserving their order.
1. G32U C46G
2. G17C C46A
3. A30U A49G
4. A36C U53C
5. C16U A71G

Marked response:
1: 0.14; 2: 0.113; 3: 0.2; 4: 0.953; 5: 1.08

Look up self-cleavage for the entries below, preserving their order.
1. C16U C65A
2. A30G C48G
3. C16A U33A
4. A24U C65A
5. A22U U70G

Marked response:
1.15
0.0877
0.17
0.734
0.674

Look up self-cleavage for the entries below, preserving their order.
1. G29U U63C
2. A31U G40U
3. A31C U55A
4. G17A U67A

Marked response:
[0.084, 0.182, 0.0627, 0.255]

Look up self-cleavage for the entries below, preserving their order.
1. C6A C48G
2. C4A U5G
3. U5A A59C
4. C3U G68C
5. G17A C46U
6. G32U A71C
7. A41C C50U

Marked response:
0.121
0.109
0.262
0.142
0.143
0.206
0.713

Look up self-cleavage for the entries below, preserving their order.
1. G27A U33G
2. C4A G54U
3. U20A U53A
4. G29A C65A
5. A43U U67C
6. C3G G19A

Marked response:
0.0835
0.118
0.758
0.0759
0.109
0.2
